Where do the numbers come from? From paper PMC12167710.

biological target: receptor-binding domain (RBD) of the wild-type SARS-CoV-2 spike protein (SARS-CoV-2, UniProt P0DTC2 333-527); experiment: cell-based or functional assay
readout type: other (ng/mL)
Give bare numbers, in ng/mL.

binder: hRBD6 (antibody, V domains shown) VH: QVQLQQWGAGLLKPSETLSLSCAVYGGAFSDYYWSWIRQPPGKGLEWIGEIDLSGSTNYNPSLKSRVTISVDTSKNQFSLKLISVTAADTAVYYCARTHLIGYCSGGSCYSGPDPSNWFDPWGQGTLVTVSS VL: SSELTQDPAVSVALGQTVRITCQGDSLRSYYASWYQQKPGQAPVLVIYGKNNRPSGIPDRFSGSSSGNTASLTITGAQAEDEADYYCNSRDTSGHHPVFGGGTKLTVL
experimental value: 32.7
--
binder: hRBD13 (antibody, V domains shown) VH: QVQLVESGGGVVQPGRSLRLSCAVSGFTFRNYGMDWVRQAPGKGLEWVAVISYDGSNKYYADSVKGRFTISRDNSKNTLFLHLNSLRAEDTAVYYCAKAGGGPYCGGGNCYMHYFDYWGQGTQVTVSS VL: DIQMTQSPSSLSASVGDRVTITCQASQDINNYLNWYQQKPGKAPKLLIYDASNLETGVPLRFSGSGSATHFSFTISSLQPEDIATYYCQQYDHLPCTFGQGTKLEIR
experimental value: 48600

Next up:
Input: Record request: other value, item hRBD3 (antibody, V domains shown) VH: QLQLQESGPRLVRPSETLSLTCTVSGGSINSGTHYCGWIRQSPGKGLEWIGSIYYSGTTYYNPSLKSRVTISVDTSKNQFSLKLSSVTAADTAVYFCARRRAGSYFKDLSDYWGQGTLVTVSS VL: NFMLTQPHSVSESPGKTVTISCTRSSGSIASNYVQWYQQRPGGAPTTVIYEDNQRPSGVPDRFSGSIDTSSNSASLTISGLKTDDEADYYCQSYDSTNHEVFGGGTKLTVL
Output: 11.6
